Tested on: PPARa:RXRa (NR concentration 270 nM, RXRa partner concentration 90 nM)
Assay: PBM binding z-score (relative to random genomic background probes); higher = stronger binding; sequences stand for … in GC…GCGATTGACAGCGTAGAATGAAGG
Give measured PBM binding z-score for each item. Keep answers brief.
One number for each entry.

Answered cases to consult:
{"columns": ["SEQ TEXT", "PBM binding z-score"],
 "data": [
  ["TTACCAAGGTGAACGGTCGTTGATGCACGCCTTG", 2.04],
  ["GTTACAGGGTCAAGGCCAGAGTACGCGTATTGAT", 5.59],
  ["CCTCGGAGGACAGAAGGTCAAAGCTGTCCGCTTT", 3.67]
]}

Which value of PBM binding z-score has been reported for CCTTACGGGTAACGAGGTTATAGCACGACGAGCG in the records?
1.62

====

Give measured PBM binding z-score for each item. Keep answers brief.
Tested on: PPARg DBDmut IVT, anti-PPARg (DBD mutation: PPARg1 K132A/R137A, NR concentration 270 nM)
Experiment: PBM binding z-score (relative to random genomic background probes); higher = stronger binding; sequences stand for … in GC…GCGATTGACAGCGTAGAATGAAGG
One number for each entry.

{"columns": ["SEQ TEXT", "ENDPOINT LABEL", "VALUE OBSERVED"],
 "data": [
  ["CGTCCAAGGTCATATGAGGTCAGTGAAGACAGAT", "PBM binding z-score", 0.114],
  ["AGAATGAGGTCAAGATCAGGGAAACAGAATACAT", "PBM binding z-score", 2.9],
  ["ATATGTAGGTTAGCTGGGGTCCTTCAGACTAGGC", "PBM binding z-score", 2.65]
]}

Look at each sequence and report its PBM binding z-score.
1. CCTGCTAGGTCATGGTCAGCGAATCTACAGTATG
2. CCTTACGGGTCACGAGGTTGTAGCACGACGAGCG
3. AATACGGGGTCATCGTAGGCCAGAGTACGCACAG
4. TAGCCTAGGTCATTCAGGGGCAAGTATAGAAAGC
5. CCTTACGGGTTACTCCAGGTTATAGCATCGGAGT
6. CGTCCAAGGTCATAGGGGGTCAGTGAAGACAGAT
7. CAAACTAGGTCACCGAAAGGTCAAAGTCCGCATG

[-0.639, -0.374, 2.1, 0.778, -0.838, 6.03, 7.3]

====

Test system: VDR homodimer (NR concentration 270 nM)
Experiment: PBM binding z-score (relative to random genomic background probes); higher = stronger binding; sequences stand for … in GC…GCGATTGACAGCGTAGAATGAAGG
I'd appreciate it if you could label each record using PBM binding z-score and these ranges: low group = under 0.7, middle group = from 0.7 up to 4, high group = 4 and over

Worked examples, 10 sequences total:
{"columns": ["SEQ TEXT", "STUDY SYSTEM", "CLASSIFICATION"],
 "data": [
  ["CACACTAGGTCACAGAGGTCAAAGTCCGTGCGTA", "VDR homodimer (NR concentration 270 nM)", "high group"],
  ["TGAATGAGGTTAAATATCAGGGAACGTGGCGTCG", "VDR homodimer (NR concentration 270 nM)", "middle group"],
  ["AGAATGAGGTTAAACGTAGATCAGGGAAGAAAGT", "VDR homodimer (NR concentration 270 nM)", "middle group"],
  ["TAGCCTAGGTCGTTCAGGGGCCAGTATAGAAAGC", "VDR homodimer (NR concentration 270 nM)", "low group"],
  ["TCTTGTAGATCAACAGGAGGTTAATAAAGATCGA", "VDR homodimer (NR concentration 270 nM)", "low group"],
  ["CGTCTAAGGTCATAGGAGGTCAGTGAAGACAGAT", "VDR homodimer (NR concentration 270 nM)", "high group"],
  ["GCTGCTAGGTCAACTGATGGCCAGCTAAAGCTCG", "VDR homodimer (NR concentration 270 nM)", "low group"],
  ["ATATGTAGGTTAAGCGTCATTCAGGTTGGTTCGC", "VDR homodimer (NR concentration 270 nM)", "low group"],
  ["CGTCAAAGGTCATAGGAGGTCAGTGAAGACAGAT", "VDR homodimer (NR concentration 270 nM)", "middle group"],
  ["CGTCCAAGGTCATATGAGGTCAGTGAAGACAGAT", "VDR homodimer (NR concentration 270 nM)", "high group"]
]}

Continue with the next sequence.
Field: class (PBM binding z-score) — entry: TCTAGTTGGTCTAAGGTCACACACTCGAAATGCG
middle group
